System: UO-31 renal
assay.comment: NCI tumour cell line growth inhibition, 48 h
observed.property: log10(TGI) (log10 of the value in µM)
Give log10 of TGI, with TGI taken in µM.

As a guide, the following entries are already answered.
compound="CC(=O)OCC1OC(O[C@@H]2C[C@H]3C(C)(C)[C@H](OC(C)=O)CC[C@]3(C)[C@H]3CCC4=C([C@@H](C)C[C@@H](O)[C@H](O)C(C)(C)O)CC[C@@]4(C)[C@@]32C)C(O)C(O)C1O (stereo partly specified)" test_result=1.51
compound=Clc1nc(Cl)nc(NC23CC4CC(CC(C4)C2)C3)n1 test_result=1.37
compound=N#Cc1c(-c2cccs2)c2c(=S)[nH]c(=S)[nH]c2[nH]c1=S test_result=1.97
compound=O=C(c1cccs1)c1c(C(F)(F)F)n([O-])c2ccccc2[n+]1=O test_result=0.78
compound="Cc1cccc(N2C(=O)C3ON(C(C(N)=O)c4ccccc4)C(c4c5ccccc5c(Cl)c5ccccc45)C3C2=O)c1C (stereo unspecified)" test_result=1.38

q: Given COC(=O)C1=C(C(=O)OC)C2OC1C1C2C2(C)C(C)=C(C)C1(C)S2=O (stereo unspecified) , respond with its log10(TGI).
a: 1.25

q: Given O=C1CC2(C[C@@H]3CCCCCCCCC[C@@H](C3)C2)N1 (stereo partly specified) , respond with its log10(TGI).
a: 1.44
